- TESTED_SYSTEM: Nitric oxide synthase 1 (Rattus norvegicus, UniProt P29476)
- Sequence (P29476 whole entry): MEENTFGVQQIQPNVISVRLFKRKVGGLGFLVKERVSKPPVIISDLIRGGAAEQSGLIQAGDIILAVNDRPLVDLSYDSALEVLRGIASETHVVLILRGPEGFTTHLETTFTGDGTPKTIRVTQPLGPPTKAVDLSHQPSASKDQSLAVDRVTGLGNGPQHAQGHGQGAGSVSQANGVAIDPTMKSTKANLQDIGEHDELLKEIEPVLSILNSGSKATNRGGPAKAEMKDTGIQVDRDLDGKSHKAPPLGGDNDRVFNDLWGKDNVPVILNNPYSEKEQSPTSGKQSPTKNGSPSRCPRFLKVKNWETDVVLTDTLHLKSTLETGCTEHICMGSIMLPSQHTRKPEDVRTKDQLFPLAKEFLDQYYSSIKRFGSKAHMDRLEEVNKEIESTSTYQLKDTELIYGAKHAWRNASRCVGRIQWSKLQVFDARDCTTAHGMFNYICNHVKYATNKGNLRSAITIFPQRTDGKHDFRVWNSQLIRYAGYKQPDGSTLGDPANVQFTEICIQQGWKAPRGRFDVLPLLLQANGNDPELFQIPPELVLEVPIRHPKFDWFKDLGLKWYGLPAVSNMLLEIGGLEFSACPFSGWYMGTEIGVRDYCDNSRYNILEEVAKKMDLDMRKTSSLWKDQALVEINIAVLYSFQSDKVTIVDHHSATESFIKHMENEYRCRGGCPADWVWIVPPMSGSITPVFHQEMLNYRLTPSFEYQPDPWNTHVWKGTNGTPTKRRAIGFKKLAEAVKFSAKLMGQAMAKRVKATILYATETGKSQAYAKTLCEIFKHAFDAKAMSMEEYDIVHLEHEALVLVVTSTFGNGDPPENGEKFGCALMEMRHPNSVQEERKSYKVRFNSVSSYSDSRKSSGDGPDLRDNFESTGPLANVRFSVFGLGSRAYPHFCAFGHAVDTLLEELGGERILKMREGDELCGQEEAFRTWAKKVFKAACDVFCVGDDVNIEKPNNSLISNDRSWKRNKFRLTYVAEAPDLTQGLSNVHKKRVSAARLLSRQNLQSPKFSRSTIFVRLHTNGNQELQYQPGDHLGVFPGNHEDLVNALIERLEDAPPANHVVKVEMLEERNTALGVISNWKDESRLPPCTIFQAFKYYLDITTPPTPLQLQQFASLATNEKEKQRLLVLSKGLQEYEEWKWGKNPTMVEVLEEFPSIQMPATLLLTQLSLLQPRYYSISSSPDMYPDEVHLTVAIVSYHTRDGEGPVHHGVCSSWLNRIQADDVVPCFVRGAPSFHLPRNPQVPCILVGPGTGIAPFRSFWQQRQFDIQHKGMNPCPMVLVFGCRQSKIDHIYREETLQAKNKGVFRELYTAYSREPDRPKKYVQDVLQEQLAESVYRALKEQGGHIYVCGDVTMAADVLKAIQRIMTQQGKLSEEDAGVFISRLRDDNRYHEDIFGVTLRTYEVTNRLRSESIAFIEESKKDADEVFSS
- ASSAY_INFO: Inhibition of recombinant rat nNOS using [3H]L-arginine as substrate preincubated for 15 mins followed by NADPH addition measured after 20 mins in presence of FMN/FAD by liquid scintillation counting method
pIC50: −log10 of the molar value.
ENDPOINT: pIC50

**Query** Give its pIC50 value. Item: CC(=N)NCc1cccc(CNC(=O)[C@@H]2CCCN2)c1.Cl.Cl
**Result** < 5.00

----------
- ASSAY_INFO: Half life in pH 7.4 PBS buffer after 24 hrs by HPLC analysis
- Type: physicochemical
- CONDITION_SET: pH 7.4, pH 7.4
ENDPOINT: half-life

**Query** Give its half-life value. Item: CC(=N)NCc1cccc(CNC(=O)[C@@H]2CCCN2)c1.Cl.Cl
**Result** > 1440 min

----------
- ASSAY_INFO: Cytotoxicity against rat CTX/TNA2 cells assessed as inhibition of cell proliferation at 1.5 mM after 24 hrs by MTT assay relative to control
- Type: cell-based
ENDPOINT: inhibition at 24 h, 1500 µM

**Query** Give its inhibition at 24 h, 1500 µM value. Item: CC(=N)NCc1cccc(CN)c1 [1400W]
**Result** ≤ 67.4%

----------
- TESTED_SYSTEM: UniProt P29473
- ASSAY_INFO: Inhibition of recombinant bovine eNOS using [3H]L-arginine as substrate preincubated for 15 mins followed by NADPH addition measured after 20 mins in presence of FMN/FAD by liquid scintillation counting method
Property: IC50; scope: individual compounds

Some entries whose results are on file:
SMILES_ENTRY	ENDPOINT	ENDPOINT_RESULT
CC(=N)NCc1cccc(CNC(=O)[C@@H](N)Cc2cnc[nH]2)c1	IC50	> 1000 µM
CC(=N)NCc1cccc(CNC(=O)[C@@H](N)CC(C)C)c1	IC50	300 µM

Turning now to a further record.
**Query** Give its IC50 value. Item: CC[C@H](C)[C@H](N)C(=O)NCc1cccc(CNC(C)=N)c1
**Result** > 1000 µM

----------
Property: IC50; scope: individual molecules
- TESTED_SYSTEM: Nitric oxide synthase 3 (Bos taurus)
- ASSAY_INFO: Inhibition of recombinant bovine eNOS using [3H]L-arginine as substrate preincubated for 15 mins followed by NADPH addition measured after 20 mins in presence of FMN/FAD by liquid scintillation counting method
Please give a number only; it is taken to be in µM.

SMILES_ENTRY	TESTED_SYSTEM	MEASUREMENT_UNITS	IC50
CC(=N)NCc1cccc(CNC(=O)[C@@H](N)CCC(=O)O)c1	Nitric oxide synthase 3 (Bos taurus)	µM	10

**Query** Give its IC50 value. Item: CC(=N)NCc1cccc(CNC(=O)[C@@H](N)CCCCN)c1
**Result** 211

----------
- TESTED_SYSTEM: UniProt P29477
- ASSAY_INFO: Inhibition of recombinant mouse iNOS using [3H]L-arginine as substrate preincubated for 15 mins followed by NADPH addition measured after 20 mins in presence of FMN/FAD by liquid scintillation counting method
Property: IC50; scope: individual compounds

Some entries whose results are on file:
SMILES_ENTRY	IC50
CC(=N)NCc1cccc(CNC(=O)[C@@H](N)CCCNC(=N)N)c1	450 nM
CC(=N)NCc1cccc(CNC(=O)[C@@H](N)CO)c1	> 10000 nM
CC(=N)NCc1cccc(CNC(=O)[C@@H](N)CC(=O)O)c1	1020 nM
CC(=N)NCc1cccc(CNC(=O)[C@@H](N)Cc2ccccc2)c1	> 10000 nM
CSCC[C@H](N)C(=O)NCc1cccc(CNC(C)=N)c1	> 10000 nM

**Query** Give its IC50 value. Item: CC(=N)NCc1cccc(CNC(=O)[C@@H](N)CC(C)C)c1
**Result** 253 nM

----------
- ASSAY_INFO: Half life in pH 9 NaOH solution after 24 hrs by HPLC analysis
- Assay type: physicochemical
- CONDITION_SET: pH 9, pH 9
ENDPOINT: half-life

**Query** Give its half-life value. Item: CC(=N)NCc1cccc(CNC(=O)[C@@H]2CCCN2)c1.Cl.Cl
**Result** > 24 h

----------
Property: Ratio IC50; scope: individual compounds
- ASSAY_INFO: Selectivity index, ratio of IC50 for recombinant bovine eNOS to IC50 for recombinant mouse iNOS

Some entries whose results are on file:
SMILES_ENTRY	ENDPOINT_RESULT
CC(=N)NCc1cccc(CNC(=O)[C@@H]2CCCN2)c1.Cl.Cl	4570
CC(=N)NCc1cccc(CNC(=O)[C@@H](N)CC(C)C)c1	1180

Turning now to a further record.
**Query** Give its Ratio IC50 value. Item: CC(=N)NCc1cccc(CNC(=O)[C@@H](N)CCCNC(=N)N)c1
**Result** > 2220

----------
- TESTED_SYSTEM: Nitric oxide synthase, inducible (Mus musculus, UniProt P29477)
- Sequence (P29477 whole entry): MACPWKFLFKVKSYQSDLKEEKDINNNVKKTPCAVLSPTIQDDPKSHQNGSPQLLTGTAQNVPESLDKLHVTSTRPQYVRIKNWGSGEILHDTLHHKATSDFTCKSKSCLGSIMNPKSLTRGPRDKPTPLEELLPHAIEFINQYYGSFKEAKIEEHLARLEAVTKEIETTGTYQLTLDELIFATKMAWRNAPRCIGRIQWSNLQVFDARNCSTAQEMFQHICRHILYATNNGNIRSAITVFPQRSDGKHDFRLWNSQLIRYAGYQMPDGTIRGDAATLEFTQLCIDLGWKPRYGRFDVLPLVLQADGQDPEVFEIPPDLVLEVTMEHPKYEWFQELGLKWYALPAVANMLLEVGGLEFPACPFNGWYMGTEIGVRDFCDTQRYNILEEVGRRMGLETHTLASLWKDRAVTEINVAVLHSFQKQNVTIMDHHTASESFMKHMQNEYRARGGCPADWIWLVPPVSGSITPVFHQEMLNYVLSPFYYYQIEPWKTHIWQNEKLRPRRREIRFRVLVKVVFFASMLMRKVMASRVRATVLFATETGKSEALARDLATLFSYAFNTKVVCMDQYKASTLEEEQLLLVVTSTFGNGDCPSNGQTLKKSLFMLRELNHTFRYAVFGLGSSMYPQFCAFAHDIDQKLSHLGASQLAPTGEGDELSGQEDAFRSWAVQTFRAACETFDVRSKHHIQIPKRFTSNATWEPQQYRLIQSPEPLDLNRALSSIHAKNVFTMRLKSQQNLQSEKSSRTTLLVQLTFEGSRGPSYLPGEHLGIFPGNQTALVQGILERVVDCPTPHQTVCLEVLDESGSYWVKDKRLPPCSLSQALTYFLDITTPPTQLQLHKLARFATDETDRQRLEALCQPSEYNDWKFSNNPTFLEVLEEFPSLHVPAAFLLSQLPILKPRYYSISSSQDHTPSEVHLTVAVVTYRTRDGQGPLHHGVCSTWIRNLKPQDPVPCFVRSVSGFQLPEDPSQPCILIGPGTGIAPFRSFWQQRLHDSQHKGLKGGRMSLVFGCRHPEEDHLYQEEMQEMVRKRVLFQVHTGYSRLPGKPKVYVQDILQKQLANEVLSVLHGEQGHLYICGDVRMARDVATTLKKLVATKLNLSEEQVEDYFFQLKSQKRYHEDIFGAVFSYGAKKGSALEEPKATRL
- ASSAY_INFO: Inhibition of recombinant mouse iNOS using [3H]L-arginine as substrate preincubated for 15 mins followed by NADPH addition measured after 20 mins in presence of FMN/FAD by liquid scintillation counting method
Property: IC50; scope: individual compounds
Please give a number only; it is taken to be in nM.

Some entries whose results are on file:
SMILES_ENTRY	ENDPOINT_RESULT
CC(=N)NCc1cccc(CNC(=O)[C@@H](N)CCC(=O)O)c1	1230
CC(=N)NCc1cccc(CNC(=O)[C@@H]2CCCN2)c1.Cl.Cl	58
CC(=N)NCc1cccc(CNC(=O)[C@@H](N)CCCCN)c1	446

**Query** Give its IC50 value. Item: CC(=N)NCc1cccc(CNC(=O)[C@@H](N)Cc2cnc[nH]2)c1
**Result** 534

**Query** Give its IC50 value. Item: CC(=N)NCc1cccc(CNC(=O)[C@H](C)N)c1
**Result** 276

**Query** Give its IC50 value. Item: CC[C@H](C)[C@H](N)C(=O)NCc1cccc(CNC(C)=N)c1
**Result** 170

----------
Property: pIC50; scope: individual molecules
- TESTED_SYSTEM: Nitric oxide synthase 3 (Bos taurus, UniProt P29473)
- Sequence (P29473 whole entry): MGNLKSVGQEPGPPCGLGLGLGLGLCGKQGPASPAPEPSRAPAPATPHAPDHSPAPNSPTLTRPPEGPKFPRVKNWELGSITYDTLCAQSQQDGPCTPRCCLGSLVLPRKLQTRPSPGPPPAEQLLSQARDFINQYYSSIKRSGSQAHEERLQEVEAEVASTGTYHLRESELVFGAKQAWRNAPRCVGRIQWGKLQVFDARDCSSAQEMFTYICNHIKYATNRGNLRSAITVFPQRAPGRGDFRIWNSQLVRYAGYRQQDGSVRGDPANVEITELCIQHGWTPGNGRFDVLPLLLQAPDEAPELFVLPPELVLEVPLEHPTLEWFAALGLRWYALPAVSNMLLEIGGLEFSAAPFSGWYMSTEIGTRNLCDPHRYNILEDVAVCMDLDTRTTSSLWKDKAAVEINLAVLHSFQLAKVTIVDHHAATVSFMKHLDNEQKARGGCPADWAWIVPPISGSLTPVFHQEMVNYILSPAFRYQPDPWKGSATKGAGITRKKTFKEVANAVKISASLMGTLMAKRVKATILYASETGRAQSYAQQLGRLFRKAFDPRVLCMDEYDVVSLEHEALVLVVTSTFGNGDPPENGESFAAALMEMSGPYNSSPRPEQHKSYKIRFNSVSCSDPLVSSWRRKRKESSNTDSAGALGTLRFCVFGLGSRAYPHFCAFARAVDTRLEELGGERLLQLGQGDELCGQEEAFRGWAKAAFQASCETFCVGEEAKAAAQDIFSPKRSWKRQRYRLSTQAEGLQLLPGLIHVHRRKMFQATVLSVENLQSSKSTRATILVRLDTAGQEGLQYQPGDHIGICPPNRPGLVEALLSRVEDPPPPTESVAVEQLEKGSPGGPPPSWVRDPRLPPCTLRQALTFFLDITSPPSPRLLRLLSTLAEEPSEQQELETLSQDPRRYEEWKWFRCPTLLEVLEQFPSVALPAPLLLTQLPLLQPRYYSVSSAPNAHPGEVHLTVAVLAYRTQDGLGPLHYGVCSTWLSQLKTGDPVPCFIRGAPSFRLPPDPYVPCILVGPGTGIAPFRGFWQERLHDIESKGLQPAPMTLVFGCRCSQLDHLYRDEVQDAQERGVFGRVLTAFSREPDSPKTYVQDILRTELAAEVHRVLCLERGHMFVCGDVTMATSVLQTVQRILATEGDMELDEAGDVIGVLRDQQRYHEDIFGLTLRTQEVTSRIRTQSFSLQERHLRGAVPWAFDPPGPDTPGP
- ASSAY_INFO: Inhibition of recombinant bovine eNOS using [3H]L-arginine as substrate preincubated for 15 mins followed by NADPH addition measured after 20 mins in presence of FMN/FAD by liquid scintillation counting method
Here pIC50 is given on a logarithmic scale as minus log10 of the concentration in mol/L.

SMILES_ENTRY	pIC50
CC(=N)NCc1cccc(CNC(=O)[C@@H]2CCCN2)c1.Cl.Cl	3.58

Turning now to a further record.
**Query** Give its pIC50 value. Item: CC(=N)NCc1cccc(CNC(=O)[C@@H](N)CC(=O)O)c1
**Result** 3.48
